// data source = PubChem BioAssay AID1159580

- test.description: chemical genetic growth profiling, strain panel (AID 1159580);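 note: tested at 20 µM; growth read once vehicle control cultures reached saturation at 30 °C; 1 = growth at the plate median or of vehicle wells; lower values mean less growth of the strain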
- setup.conditions: S. cerevisiae deletion strains, growth OD, locus YBR231C, strain swc5
Out of some 5,500 compounds screened, about 2,000 (36%) were called active. Another 18% or so got no clear call; they are omitted. Cut-off read from the data, not from the text of the source: active = normalized growth mostly below about 0.91 (no sharp cut-off); inconclusive = no clear call, values can overlap the other calls; inactive = mostly above about 0.92. The list shows a part of the results.
Field 'call' accepts YES for active, NO for inactive

Some solved cases for reference:
INSERT INTO measurements (compound, qualitative_label) VALUES
  ('COc1cc([C@H]2Oc3cc([C@H]4Oc5cc(O)cc(O)c5C(=O)[C@@H]4O)ccc3O[C@@H]2CO)ccc1O', 'NO'),
  ('CNC(=O)Oc1ccc2c(c1)[C@]1(C)CCN(C)[C@@H]1N2C', 'NO'),
  ('CN1CCN(C2=Nc3ccccc3Oc3ccc(Cl)cc32)CC1', 'NO'),
  ('O=[N+]([O-])c1cccc2cn[nH]c12', 'NO');

Entry CC1(C)C(O)CC(O)C2(C)C1CC(O)C1(C)C2CCC2(C)C(c3ccoc3)OC(=O)C3OC321 (stereo not drawn) : call = ?
NO

Entry CC(=O)O[C@H]1C[C@@H](OC(C)=O)C(C)(C)C2CC(=O)[C@]3(C)C(CC[C@@]4(C)[C@H](c5ccoc5)OC(=O)[C@H]5O[C@]543)[C@]21C (stereo partly drawn) : call = ?
NO

Entry CN(C)CCOC(=O)COc1ccc(Cl)cc1 : call = ?
NO

Entry O=c1cc(-c2ccccc2)oc2cc(O)c(O)cc12 : call = ?
NO

Entry O=c1cc(-c2ccc(O)cc2)oc2cc(O)cc(O)c12 : call = ?
NO

Entry O=c1cc(-c2ccccc2)oc2cccc(O)c12 : call = ?
NO

Entry Cc1cc(=O)oc2c(O)c(O)ccc12 : call = ?
NO

Entry CN(C)CCOC(=O)C(c1ccccc1)C1(O)CCCC1 (stereo not drawn) : call = ?
NO

Entry O=C(O)CCCOc1ccc(Cl)cc1Cl : call = ?
NO

Entry CC1=C2[C@H]3OC(=O)[C@@H](C)[C@@H]3CC[C@@]2(C)C=CC1=O : call = ?
NO

====

- test.description: chemical genetic growth profiling, strain panel (AID 1159580);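 note: tested at 20 µM; growth read once vehicle control cultures reached saturation at 30 °C; 1 = growth at the plate median or of vehicle wells; lower values mean less growth of the strain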
- setup.conditions: S. cerevisiae deletion strains, growth OD, locus YLR221C, strain rsa3, hits give low values
The campaign covered roughly 5,500 compounds. About 2,000 (36%) were called active. Not shown: some 18% with an inconclusive outcome. The list shows a part of the results.
quantity: normalized growth
Answers are plain numbers.

These recorded examples may help you get a feel for the data.
INSERT INTO results (molecule, observed_measurement) VALUES
  ('O=c1cc(-c2ccc(O)cc2)oc2cc(O)cc(O)c12', 0.992),
  ('COC(=O)CCC(C)[C@H]1CCC2C3C(C[C@H](O)[C@@]21C)[C@@]1(C)CC[C@@H](O)C[C@H]1C[C@H]3O (stereo not given in full)', 1.02),
  ('CC(C)CCCC(C)C1CCC2C3CC[C@H]4CCCC[C@]4(C)C3CC[C@]12C (stereo not given in full)', 1.02),
  ('CC(CCC(=O)O)[C@H]1CCC2C3C[C@H](O)[C@@H]4C[C@H](O)CC[C@]4(C)C3CC[C@@]21C (stereo not given in full)', 1.03);

--- query ---
Indicate its recorded normalized growth; the molecule in question is O=c1cc(-c2ccc(O)cc2)oc2cc(O)ccc12
0.974
